Hey, just so you know, these numbers are from paper PMC6610696.

Target: T1, S. cerevisiae Nrd1 CID (residues 6-151), N-terminal hexa-histidine tag (S. cerevisiae, UniProt P53617 6-151)
T1 sequence (looked up): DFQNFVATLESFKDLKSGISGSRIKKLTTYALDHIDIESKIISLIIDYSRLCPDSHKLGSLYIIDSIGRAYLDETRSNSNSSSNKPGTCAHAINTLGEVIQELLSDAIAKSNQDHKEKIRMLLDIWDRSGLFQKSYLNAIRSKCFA
Test: fluorescence polarisation
Ends that are not written are not given here.
Attribute measured: Kd
Respond with the figure and its unit, in that order.

query: Bench note: what Kd did DDEDDYTPSISD (also: 5-FAM label: N-terminal per methods, C-terminal per resources table) [ScSen1-NIM2-FAM peptide] show?
result: 560 nM
